Biological target: recombinant human PDE-10 enzyme (Homo sapiens (Human))
Sequence (Q9Y233 whole entry): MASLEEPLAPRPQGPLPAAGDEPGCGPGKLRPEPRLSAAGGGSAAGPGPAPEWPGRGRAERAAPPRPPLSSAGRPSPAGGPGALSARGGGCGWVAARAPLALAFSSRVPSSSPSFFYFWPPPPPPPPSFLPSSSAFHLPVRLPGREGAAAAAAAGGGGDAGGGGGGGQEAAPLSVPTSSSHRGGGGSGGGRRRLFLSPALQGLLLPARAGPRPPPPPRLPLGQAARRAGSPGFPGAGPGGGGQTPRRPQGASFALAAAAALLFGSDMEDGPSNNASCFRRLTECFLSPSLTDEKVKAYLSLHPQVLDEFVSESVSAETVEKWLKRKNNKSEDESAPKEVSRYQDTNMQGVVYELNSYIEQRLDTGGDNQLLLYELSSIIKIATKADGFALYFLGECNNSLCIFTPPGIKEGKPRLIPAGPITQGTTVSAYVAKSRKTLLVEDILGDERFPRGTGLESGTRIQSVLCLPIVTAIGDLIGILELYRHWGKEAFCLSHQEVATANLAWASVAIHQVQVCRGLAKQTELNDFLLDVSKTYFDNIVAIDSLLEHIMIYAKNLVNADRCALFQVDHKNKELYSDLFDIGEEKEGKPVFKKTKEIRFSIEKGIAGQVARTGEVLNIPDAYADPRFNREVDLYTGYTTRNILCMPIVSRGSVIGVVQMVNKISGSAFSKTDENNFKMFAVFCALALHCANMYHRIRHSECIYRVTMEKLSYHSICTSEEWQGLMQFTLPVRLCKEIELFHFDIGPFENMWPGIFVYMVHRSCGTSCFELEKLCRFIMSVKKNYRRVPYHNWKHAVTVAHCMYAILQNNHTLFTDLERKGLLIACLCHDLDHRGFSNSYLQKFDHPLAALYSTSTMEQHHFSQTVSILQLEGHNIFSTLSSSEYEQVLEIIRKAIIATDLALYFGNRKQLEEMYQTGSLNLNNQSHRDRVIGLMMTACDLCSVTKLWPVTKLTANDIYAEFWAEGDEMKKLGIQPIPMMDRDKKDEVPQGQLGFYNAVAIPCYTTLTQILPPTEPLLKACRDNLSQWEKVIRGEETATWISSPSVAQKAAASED
Test: Molecular Devices IMAP PDE Fluorescence Polarization assay, human PDE-10 inhibition (enzyme assay IC50)
Conditions: recombinant human PDE-10 expressed in baculoviral system; Fluorescein-labeled cAMP/cGMP substrate; 40-minute incubation at 37° C.
Experimental endpoint: IC50

{"Compound": "Cc1ncc(C)n2nc(CCc3ccc4c(n3)N[C@@H](C)CO4)nc12", "Test system": "recombinant human PDE-10 enzyme (Homo sapiens (Human))", "Experimental endpoint": "IC50", "Measurement": "100 to 500 nM"}
{"Compound": "Cc1ncc(C)n2nc(CCc3ccc4c(n3)N[C@H](C)CC4)nc12", "Test system": "recombinant human PDE-10 enzyme (Homo sapiens (Human))", "Experimental endpoint": "IC50", "Measurement": "10 to 100 nM"}
{"Compound": "CCC1COc2ccc(CCc3nc4c(C)ncc(C)n4n3)nc2N1 (stereo not drawn)", "Test system": "recombinant human PDE-10 enzyme (Homo sapiens (Human))", "Experimental endpoint": "IC50", "Measurement": "10 to 100 nM"}

Okay, now this compound:
# IC50 lookup, item Cc1ncc(C)n2nc(CCc3ccc4c(n3)NC(C)CC4)nc12 (stereo not drawn)
10 to 100 nM

* * *

Target: recombinant human PDE-10 enzyme (Homo sapiens (Human))
Test: Molecular Devices IMAP PDE Fluorescence Polarization assay, human PDE-10 inhibition (enzyme assay IC50)
Conditions: recombinant human PDE-10 expressed in baculoviral system; Fluorescein-labeled cAMP/cGMP substrate; 40-minute incubation at 37° C.
Here, each record is paired with measured IC50 data.

Examples from the recorded data:
{"Compound": "Cc1ncc(C)n2nc(CCc3ccc4c(n3)N(C)C(C)CO4)nc12 (centres unmarked) [Compound 10]", "Test system": "recombinant human PDE-10 enzyme (Homo sapiens (Human))", "Measurement": "100 to 500 nM"}
{"Compound": "Cc1ncc(C)n2nc(CCc3ccc4c(n3)N[C@@H](C)CC4)nc12 [Compound 5]", "Test system": "recombinant human PDE-10 enzyme (Homo sapiens (Human))", "Measurement": "10 to 100 nM"}
{"Compound": "Cc1ncc(C)n2nc(CCc3ccc4c(n3)NC(C)CO4)nc12 (centres unmarked) [Compound 6]", "Test system": "recombinant human PDE-10 enzyme (Homo sapiens (Human))", "Measurement": "10 to 100 nM"}
{"Compound": "Cc1ncc(C)n2nc(CCc3ccc4c(n3)N[C@H](C)CO4)nc12 [Compound 7]", "Test system": "recombinant human PDE-10 enzyme (Homo sapiens (Human))", "Measurement": "10 to 100 nM"}

# lookup: IC50 of Cc1ccc2ccc(CCc3nc4c(C)ncc(C)n4n3)nc2c1 [Compound 1]
≤ 10 nM

Can you look up the measured IC50 of COc1ccc2ccc(CCc3nc4c(C)ncc(C)n4n3)nc2c1 [Compound 2] for me?
≤ 10 nM

I would be grateful if you could share the reported IC50 for Cc1ncc(C)n2nc(CCc3ccc4c(n3)NC(C)(C)CO4)nc12 [Compound 12] .
100 to 500 nM

Request the reported IC50 associated with CCC1COc2ccc(CCc3nc4c(C)ncc(C)n4n3)nc2N1C (centres unmarked) [Compound 11]
> 500 nM
